Consider the following molecules; for each one, report its pIC50.
- Target: human IL-17A / human IL-17RA (Homo sapiens (Human), UniProt Q16552)
- Sequence (Q16552 24-155): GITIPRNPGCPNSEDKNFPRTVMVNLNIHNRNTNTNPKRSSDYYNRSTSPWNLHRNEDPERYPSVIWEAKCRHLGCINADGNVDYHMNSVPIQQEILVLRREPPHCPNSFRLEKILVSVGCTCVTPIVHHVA
- Test Name: Human IL-17A biochemical assay (HTRF, blocking of IL-17A binding to IL-17RA)
- Condition Parameters: 0.4 nM IL-17A, 0.3 nM IL-17RA, max compound concentration 10 uM
Answers are plain numbers, as −log10 of the molar value.

Sample records with pIC50:
Molecule: CNC(=O)C1(N2CC3(CC3)CNC2=O)Cc2ccc(NC(=O)[C@@H](NC(=O)c3cccc(C#N)c3)C3CCCCC3)cc2C1 (stereo partly shown)
pIC50: 7.02
--
Molecule: CNC(=O)C1(N2CC3(CCC3)CNC2=O)Cc2ccc(NC(=O)[C@@H](NC(=O)c3ccnn3C)C(C3CC3)C3CC3)cc2C1 (stereo partly shown)
pIC50: 7.72
--
Molecule: CNC(=O)C1(N2CC(C)CNC2=O)Cc2ccc(NC(=O)[C@@H](NC(=O)c3ccnn3C)C3CCCCC3)cc2C1 (stereo partly shown)
pIC50: 6.20

Hey, can you go through the list below and give me pIC50 for every item?
1. Cc1nonc1C(=O)N[C@H](C(=O)Nc1ccc2c(c1)CC(C1CCCC1)(N1CC3(CC3)CNC1=O)C2)C(C1CC1)C1CC1 (stereo partly shown)
2. Cc1nonc1C(=O)N[C@H](C(=O)Nc1ccc2c(c1)CC(C(=O)Nc1ccncc1Cl)(N1C[C@@H](C(C)C)NC1=O)C2)C(C1CC1)C1CC1 (stereo partly shown)
3. CC1CN(C2(C(=O)O)Cc3ccc(NC(=O)[C@@H](NC(=O)c4ccnn4C)C4CCCCC4)cc3C2)C(=O)N1 (stereo partly shown)
4. CCC1CCC(C(NC(=O)c2ccnn2C)C(=O)Nc2ccc3c(c2)CC(C(=O)NC)(N2C[C@@H](C(C)C)NC2=O)C3)CC1 (stereo partly shown)
5. CNC(=O)C1(N2CC3(CC3)CNC2=O)Cc2ccc(NC(=O)[C@@H](NC(=O)c3ccc(C#N)n3C3CC3)C3CCCCC3)cc2C1 (stereo partly shown)
6. CNC(=O)C1(N2C[C@@H](C(C)C)NC2=O)Cc2ccc(NC(=O)[C@H](NC(=O)c3ccnn3C)C(C3CC3)C3CC3)cc2C1 (stereo partly shown)

(A)
5.35
6.57
6.19
8.12
7.43
6.08

Cited source for all entries: patent US20250154138A1
